test system: leukemia L-1210; test: Antitumour activity in mice inoculated intraperitoneally with leukemia L-1210 (survival, T/C); type: in vivo, CDF-1 male mice; settings: Mus musculus, L1210, ip; 100 mg/kg i.p., directly after injection of L-1210, after 2 days and after 6 days
Structures can show the parent of a compound that is named as a salt.
MEASURED QUANTITY: response vs control in vivo at 100 mg/kg

COMPOUND: CCCCCCCCCCCCCCCC(=O)Nc1ccn([C@@H]2O[C@H](CO)[C@@H](O)[C@@H]2O)c(=O)n1
MEASURED QUANTITY: response vs control in vivo at 100 mg/kg
EXPERIMENTAL RESULT: > 346%
//
COMPOUND: CCCCCCCCCCCCCCCCCC(=O)Nc1ccn([C@@H]2O[C@H](COP(=O)(O)O)[C@@H](O)[C@@H]2O)c(=O)n1 [N^4 -Stearoyl-5'-PNa, monosodium salt]
MEASURED QUANTITY: response vs control in vivo at 100 mg/kg
EXPERIMENTAL RESULT: > 363%
//
COMPOUND: CCCCCCCCCCCCCCCCC(=O)Nc1ccn([C@@H]2O[C@H](CO)[C@@H](O)[C@@H]2O)c(=O)n1
MEASURED QUANTITY: response vs control in vivo at 100 mg/kg
EXPERIMENTAL RESULT: > 397%
